- target entity: Glutamate carboxypeptidase 2 (Homo sapiens, UniProt Q04609)
- Sequence (Q04609 whole entry): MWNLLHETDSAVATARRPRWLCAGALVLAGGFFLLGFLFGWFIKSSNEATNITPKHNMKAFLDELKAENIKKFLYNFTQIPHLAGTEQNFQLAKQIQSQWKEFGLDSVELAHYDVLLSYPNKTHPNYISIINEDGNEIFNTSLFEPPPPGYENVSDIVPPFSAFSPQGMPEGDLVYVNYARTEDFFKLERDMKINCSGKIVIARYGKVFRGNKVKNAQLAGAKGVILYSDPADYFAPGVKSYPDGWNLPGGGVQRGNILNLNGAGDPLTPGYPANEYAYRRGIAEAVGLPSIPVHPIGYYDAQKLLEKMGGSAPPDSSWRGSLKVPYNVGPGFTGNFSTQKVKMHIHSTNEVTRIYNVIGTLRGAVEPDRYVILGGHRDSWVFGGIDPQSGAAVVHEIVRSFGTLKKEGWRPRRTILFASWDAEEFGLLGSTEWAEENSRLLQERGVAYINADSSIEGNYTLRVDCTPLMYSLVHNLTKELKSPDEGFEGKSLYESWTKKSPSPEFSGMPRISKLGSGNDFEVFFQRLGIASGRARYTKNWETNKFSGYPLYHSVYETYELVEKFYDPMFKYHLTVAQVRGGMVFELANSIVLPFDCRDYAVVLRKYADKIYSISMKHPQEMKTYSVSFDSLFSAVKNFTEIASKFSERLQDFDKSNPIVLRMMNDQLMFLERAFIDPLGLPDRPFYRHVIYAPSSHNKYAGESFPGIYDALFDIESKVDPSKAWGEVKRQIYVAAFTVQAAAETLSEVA
- protocol text: Inhibition of human recombinant GCP2 expressed in Schneider 2 cells preincubated for 15 mins using [3H]-NAAG/NAAG as substrate measured after 20 mins by liquid scintillation counting
measured metric: IC50 (nM)

compound | IC50 / nM
O=C(CC[C@@H](Cc1ccc(C(=O)O)cc1)C(=O)O)NO | 97

(a) O=C(CC[C@H](Cc1ccc(C(=O)O)cc1)C(=O)O)NO
(b) O=C(CCC(Cc1ccc(C(=O)O)cc1)C(=O)O)NO (racemic)
Incoming: Name the one with the greater IC50 value, either a or b as given. Give the label of your selection.
Outgoing: b

====

- Test system: Plasma
- protocol text: Plasma concentration in CD1 mouse at 10 mg/kg, po administered as single dose measured after 0.25 to 2 hrs by LC/MS/MS analysis
- Format: ADME, organism-based
- measurement context: in vivo
measured metric: concentration (nM)
I only need the number, in nM, no unit after it.

Incoming: concentration lookup needed for `O=C(CC[C@@H](Cc1ccc(C(=O)O)cc1)C(=O)O)NO` , thanks.
Outgoing: 121

Each recorded value in this set is attributed to ChEMBL document CHEMBL3817757.
